Data origin, for the record: patent US20150157575A1

- assaySummary: Study 1: single-dose pharmacokinetics in mild or moderate hepatic impairment and matched healthy controls
- Format: in vivo, human
- reportedConditions: both sexes, human, plasma, po, 20 mg, Mild Impairment n = 8; vilazodone 20 mg single oral dose
- Description: The pharmacokinetics, tolerability, and safety of vilazodone were investigated in two separate trials involving participants with hepatic impairment, compared with healthy controls. An Open-label, parallel-group, single-dose pharmacokinetic studies, a single, oral dose of vilazodone (20 mg with increased hardness) was administered to participants with mild, moderate, or severe hepatic impairment or individually matched controls. […] Plasma samples were analyzed using validated LC/MS/MS methods. […]

{"molecule": "Cl.N#Cc1ccc2[nH]cc(CCCCN3CCN(c4ccc5oc(C(N)=O)cc5c4)CC3)c2c1 [Vilazodone]", "AUC(0-inf) (ng·h/mL)": 1030}

====

- assaySummary: Study 1: single-dose pharmacokinetics in mild or moderate hepatic impairment and matched healthy controls
- Format: in vivo, human
- reportedConditions: both sexes, human, plasma, po, 20 mg, Moderate Impairment n = 8; vilazodone 20 mg single oral dose
measurementKind: AUC(0-inf) (ng·h/mL)

{"compound": "Cl.N#Cc1ccc2[nH]cc(CCCCN3CCN(c4ccc5oc(C(N)=O)cc5c4)CC3)c2c1 [Vilazodone]", "measurementKind": "AUC(0-inf)", "numericValue": 727}

====

- assaySummary: Study 1: single-dose pharmacokinetics in mild or moderate hepatic impairment and matched healthy controls
- Format: in vivo, human
- reportedConditions: both sexes, human, plasma, po, 20 mg, Control matched to Moderate Impairment n = 8; vilazodone 20 mg single oral dose; read-out: Tmax, Median

{"smilesStr": "Cl.N#Cc1ccc2[nH]cc(CCCCN3CCN(c4ccc5oc(C(N)=O)cc5c4)CC3)c2c1", "valueUnits": "h", "Tmax": 5}

====

- assaySummary: clinical
- Set-up: species or system human
- reportedConditions: both sexes, human, in vivo, tmax, Median (min-max)

{"compound": "NC(=O)N1c2ccccc2C=Cc2ccccc21 [Carbamazepine, carbamazepine]", "valueUnits": "h", "Tmax": 10}

====

- System: plasma proteins
- assaySummary: Vilazodone protein binding by equilibrium dialysis (Studies 1 and 2)
- Format: in vitro ADME
- reportedConditions: both sexes, human, plasma of study participants, healthy controls; read-out: mean percent free fraction in plasma

{"compound": "Cl.N#Cc1ccc2[nH]cc(CCCCN3CCN(c4ccc5oc(C(N)=O)cc5c4)CC3)c2c1 [Vilazodone, hydrochloride]", "fraction unbound": "0.01 to 0.014"}

====

- assaySummary: clinical
- Design: species or system human
- reportedConditions: both sexes, human, in vivo, Mean trough plasma concentration
- Procedure: An open-label, multiple-dose, single-sequence study to evaluate the effect of steady-state carbamazepine XR, 400 mg once daily, a CYP3A4 substrate and inducer, on the pharmacokinetics of steady-state vilazodone 40 mg tablets once daily, with hardness of more than 10 kp and less than 14 kp, preferably about 12 kp as shown in Table 3 (No Tablet Breakage). Vilazodone was co-administered with carbamazepine XR (extended release formulation). […]

{"molecule": "Cl.N#Cc1ccc2[nH]cc(CCCCN3CCN(c4ccc5oc(C(N)=O)cc5c4)CC3)c2c1 [Vilazodone, hydrochloride]", "concentration at 9 day, ng/mL": 45.3}

====

- Tested on: plasma proteins
- assaySummary: Vilazodone protein binding by equilibrium dialysis (Studies 1 and 2)
- Assay type: in vitro ADME
- reportedConditions: both sexes, human, plasma of study participants, all participants with severe hepatic impairment; read-out: mean percent free fraction in plasma

{"compound": "Cl.N#Cc1ccc2[nH]cc(CCCCN3CCN(c4ccc5oc(C(N)=O)cc5c4)CC3)c2c1 [Vilazodone, hydrochloride]", "fraction unbound": 0.0224}
